protocolDetails: in vitro
experimentalSetup: human, cryopreserved pooled hepatocytes
Non-standard residues stand in square brackets, D forms with d. Residues, ends and D or L forms follow the SMILES beside them. Dab(3S-OH) = NC[C@H](O)[C@H](N)C(=O)O; Phe(2-F) = N[C@@H](Cc1ccccc1F)C(=O)O; ΔZArg = N=C(N)NCC/C=C(\N)C(=O)O; dOrn = NCCC[C@@H](N)C(=O)O; Dab = NCC[C@H](N)C(=O)O
measurementKind: half-life at 1 μM (h)
One number for each entry, in h.

Inquiry: Requested read-out: half-life at 1 μM. Entry: N=C(N)NCC/C=C(\NC(=O)[C@H](CCCCN)NC(=O)[C@H](Cc1ccccc1F)NC(=O)[C@@H]1CCCN1C(=O)[C@@H](CCCN)NC(=O)CNC(=O)[C@H](CCN)NC(=O)[C@@H](NC(=O)[C@@H](N)CCCCN)[C@@H](O)CN)C(=O)O [NOSO-502] (H-K[Dab(3S-OH)][Dab]G[dOrn]P[Phe(2-F)]K[ΔZArg]-OH)
Reply text: 5.48
